# TESTED ON: T1, biotinylated recombinant human trimeric ARG2 enzyme (Avi-huARG2-His10) (human, UniProt P78540 23-354, biotinylated)
# T1 construct: also called avi-Arg2-His10; bio-ARG2
# T1 chain: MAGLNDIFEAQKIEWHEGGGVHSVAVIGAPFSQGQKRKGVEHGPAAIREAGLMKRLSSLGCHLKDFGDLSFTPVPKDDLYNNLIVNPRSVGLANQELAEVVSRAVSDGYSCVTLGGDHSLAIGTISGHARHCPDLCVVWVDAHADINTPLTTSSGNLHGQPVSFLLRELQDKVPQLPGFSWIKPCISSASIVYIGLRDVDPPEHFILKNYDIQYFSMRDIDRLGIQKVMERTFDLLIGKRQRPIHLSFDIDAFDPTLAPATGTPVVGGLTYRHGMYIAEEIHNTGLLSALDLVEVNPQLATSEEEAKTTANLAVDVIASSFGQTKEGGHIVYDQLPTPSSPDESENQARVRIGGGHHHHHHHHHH
# METHOD SUMMARY: BLI (OctetRED), biotinylated ARG2 on streptavidin, Fab as analyte
READOUT TYPE: kon (M⁻¹ s⁻¹)

1. C0021096 Fab (Fab, V domains shown, Human Fab) VH: EVQLLESGGGLVQPGGSLRLSCAASGFTFSSYAMSWVRQAPGKGLEWVSAISGYSGYYADSVKGRFTISRDNSKNTLYLQMNSLRAEDTAVYYCARLRADLGLYMDLWGRGTLVTVSS VL: QSVLTQPPSVSAAPGQKVTISCSGSSSNIGNHYVSWYQQLPGTAPKLLIYNTERRMSGIPDRFSGSKSGTSATLGITGLQTGDEADYYCGTWDSSLSALVFGGGTKLTVL ... 441000

Value source: patent US20220403048A1
